system: NCI-H1299; assay: Effect on OVA expression in human H1299 cells at 10 uM incubated for 40 hrs by western blot analysis; type: functional; set-up: unit not given here
Hi! Just check whether Activity is below 100. Below gives yes, equal or above gives no.

In the record for O=C(N/N=C/c1ccc2c(ccc[n+]2Cc2ccccc2)c1)c1cccc(C(=O)N/N=C/c2ccc3c(ccc[n+]3Cc3ccccc3)c2)n1.[Br-].[Br-] , is Activity less than 100?
yes

In the record for CC[n+]1cccc2cc(/C=N/NC(=O)c3cc(C(=O)N/N=C/c4ccc5c(ccc[n+]5CC)c4)ncn3)ccc21.[I-].[I-] , is Activity less than 100?
yes

In the record for O=C(N/N=C/c1cc[n+](Cc2ccccc2)c2ccccc12)c1ccc2ccc3ccc(C(=O)N/N=C/c4cc[n+](Cc5ccccc5)c5ccccc45)nc3c2n1.[Br-].[Br-] , is Activity less than 100?
no

In the record for O=C(N/N=C/c1ccc2c(ccc[n+]2Cc2ccccc2)c1)c1cc(C(=O)N/N=C/c2ccc3c(ccc[n+]3Cc3ccccc3)c2)ncn1.[Br-].[Br-] , is Activity less than 100?
no

In the record for CC[n+]1cccc2cc(/C=N/NC(=O)c3ccc4ccc(C(=O)N/N=C/c5ccc6c(ccc[n+]6CC)c5)nc4n3)ccc21.[I-].[I-] , is Activity less than 100?
no

----------
test system: human gammaherpesvirus 4; assay: Binding affinity to EBNA1 G4-quadruplex in human H1299 cells assessed as EB virus EBNA1 deleted GAr expression at 10 uM incubated for 40 hrs by western blot analysis; format: cell-based
Calls of active or inactive are those of the source. The calls are words filed in the database; no cut-off is given here.
Mark one answer only. Choices: yes for active, no for inactive

Kindly provide the recorded test outcome for the following molecule: O=C(N/N=C/c1cc[n+](Cc2ccccc2)c2ccccc12)c1ccc2ccc(C(=O)N/N=C/c3cc[n+](Cc4ccccc4)c4ccccc34)nc2n1.[Br-].[Br-]
no

Kindly provide the recorded test outcome for the following molecule: O=C(N/N=C/c1ccc2c(ccc[n+]2Cc2ccccc2)c1)c1cc(C(=O)N/N=C/c2ccc3c(ccc[n+]3Cc3ccccc3)c2)ncn1.[Br-].[Br-]
yes

Kindly provide the recorded test outcome for the following molecule: O=C(N/N=C/c1cc[n+](Cc2ccccc2)c2ccccc12)c1cc(C(=O)N/N=C/c2cc[n+](Cc3ccccc3)c3ccccc23)ncn1.[Br-].[Br-]
no

Kindly provide the recorded test outcome for the following molecule: CC[n+]1cccc2cc(/C=N/NC(=O)c3cccc(C(=O)N/N=C/c4ccc5c(ccc[n+]5CC)c4)n3)ccc21.[I-].[I-]
no

Kindly provide the recorded test outcome for the following molecule: C[n+]1ccc(/C=N/NC(=O)c2cccc(C(=O)N/N=C/c3cc[n+](C)cc3)n2)cc1.[I-].[I-]
no

Kindly provide the recorded test outcome for the following molecule: O=C(N/N=C/c1ccc2c(ccc[n+]2Cc2ccccc2)c1)c1cccc(C(=O)N/N=C/c2ccc3c(ccc[n+]3Cc3ccccc3)c2)n1.[Br-].[Br-]
yes

Kindly provide the recorded test outcome for the following molecule: O=C(N/N=C/c1ccc2c(ccc[n+]2Cc2ccccc2)c1)c1ccc2ccc3ccc(C(=O)N/N=C/c4ccc5c(ccc[n+]5Cc5ccccc5)c4)nc3c2n1.[Br-].[Br-]
no

Kindly provide the recorded test outcome for the following molecule: CC[n+]1cccc2cc(/C=N/NC(=O)c3ccc4ccc5ccc(C(=O)N/N=C/c6ccc7c(ccc[n+]7CC)c6)nc5c4n3)ccc21.[I-].[I-]
no

Kindly provide the recorded test outcome for the following molecule: C[n+]1ccc(/C=N/NC(=O)c2cccc(C(=O)N/N=C/c3cc[n+](C)c4ccccc34)n2)c2ccccc21.[I-].[I-]
no

Kindly provide the recorded test outcome for the following molecule: C[n+]1ccc(/C=N/NC(=O)c2cc(C(=O)N/N=C/c3cc[n+](C)cc3)ncn2)cc1.[I-].[I-]
no

Kindly provide the recorded test outcome for the following molecule: C[n+]1ccc(/C=N/NC(=O)c2ccc3ccc4ccc(C(=O)N/N=C/c5cc[n+](C)cc5)nc4c3n2)cc1.[I-].[I-]
yes

Kindly provide the recorded test outcome for the following molecule: C[n+]1ccc(/C=N/NC(=O)c2ccc3ccc4ccc(C(=O)N/N=C/c5cc[n+](C)c6ccccc56)nc4c3n2)c2ccccc21.[I-].[I-]
no

Kindly provide the recorded test outcome for the following molecule: CC[n+]1cccc2cc(/C=N/NC(=O)c3cc(C(=O)N/N=C/c4ccc5c(ccc[n+]5CC)c4)ncn3)ccc21.[I-].[I-]
yes
